Measured values drawn from the supplement of paper PMC10290057 for this set.

System: HCT116
Assay: efficacy (fitted maximal change in viability relative to DMSO control); higher = less cytotoxic (negative = loss of viability)
Conditions: 48 h
Structures can show the parent of a compound that is named as a salt.
Recorded measurements of efficacy, one per entry
attributeMeasured: efficacy (%)

* Cc1cc(O)c2c(c1)C(=O)c1cc(O)cc(O)c1C2=O | -31.9
* NC(=O)c1cccc(N)c1 | -10.2
* CCCN(CCC)C(=O)C\1=C\C2=CC=C(C=C2\N=C(N)/C1)C3=CC=C(C=C3)C(=O)N4CCCC4 | -45.8
* C[C@H](NC(=O)Cc1cc(F)cc(F)c1)C(=O)N[C@@H]1C(=O)N(C)c2ccccc2-c2ccccc21 | -23.7
* C[C@]12COC(=O)C[C@@H]1CC[C@@H]1[C@@H]2CC[C@@]2(C)[C@H]1CC[C@]2(C)O | -21.6
* CCC/1=C(/NC2=C(C=N[N]2C1=O)C#N)C3=CC=CC=C3C | 17.2
* CC(=O)NCC(=O)N1[C@@H]2CC[C@H]1c1ccc(Nc3ncc(C(F)(F)F)c(NC4CCC4)n3)cc12 | -73.5
* CC(C)C[C@H](NC(=O)CNC(=O)c1cc(Cl)ccc1Cl)B1OC(=O)CC(CC(=O)O)(C(=O)O)O1 (stereo partly drawn) [Ixazomib citrate] | -93.4

* * *

System: HCT116
Assay: efficacy (fitted maximal change in viability relative to DMSO control); higher = less cytotoxic (negative = loss of viability)
Conditions: 48 h
Cut-off -70% on efficacy, inclusive. At or above means T; below means F.

* CC[C@@H]1C(=O)N(C)c2cnc(Nc3ccc(C(=O)NC4CCC(N5CCN(CC6CC6)CC5)CC4)cc3OC)nc2N1C(C)C (some centres undefined) | F
* CC(C)c1cnn2c(NCc3ccccc3)cc(N[C@@H](CO)[C@H](O)CO)nc12 | T
* CCNC(=O)C[C@H]1/N=C(/C2=CC=C(Cl)C=C2)C3=CC(=CC=C3[N]4C(=NN=C14)C)OC | T
* Cn1c(=O)c2c(ncn2CC2OCCO2)n(C)c1=O | T
* Cc1ccc(Nc2nccc(N(C)c3ccc4c(C)n(C)nc4c3)n2)cc1[S+](N)(=O)[O-] | T
* Nc1nc(Nc2ccc([S+](N)(=O)[O-])cc2)nn1C(=O)c1c(F)cccc1F | T
* O=C(O)c1ccc(CCCc2ccc(OCCc3ccc(F)cc3)cc2)o1 | T
* CC/C(=C(/c1ccc(/C=C/C(=O)O)cc1)c1ccc2[nH]ncc2c1)c1ccc(F)cc1Cl | T
* Cc1ccc(-c2ncn(-c3ccc(Nc4nccc(-c5cccc(N6CCOCC6)c5)n4)cc3)n2)cn1 | F
* CC(C)(C)OC(=O)CN(Cc1ccc(Cl)cc1)Cc1ccc([N+](=O)[O-])s1 | T
* O=C(O)c1ccc(-n2nc(-c3ccccc3O)nc2-c2ccccc2O)cc1 | F

* * *

Tested on: HCT116;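 also: Luminescence-based viability readout, five doses per compound, normalized against on-plate DMSO and empty-well controls, followed by dose-response curve fitting for every drug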
Test: efficacy (fitted maximal change in viability relative to DMSO control); higher = less cytotoxic (negative = loss of viability)
Conditions: 48 h
Please note: rule met applies when efficacy is -60% or greater, and rule not met applies otherwise.

- OC(=O)C1=CC=C(NC2=NC3=C(C\N=C(/C4=CC(=CC=C34)Cl)C5=C(F)C=CC=C5F)C=N2)C=C1: rule met
- CC(C)C[C@@H](C=O)NC(=O)[C@H](CC(C)C)NC(=O)[C@H](CC(C)C)NC(=O)OCc1ccccc1: rule not met
- CC(C)C/1=C(NC2=C(C=N[N]2C1=O)C#N)\C3=CC=CC=C3: rule met
- Cn1ccc2cc3c(cc21)CCN3C(=O)Nc1cccnc1: rule met
- COc1cccc2c1C(=O)c1c(O)c3c(c(O)c1C2=O)C[C@@](O)(C(=O)CO)C[C@@H]3O[C@H]1C[C@H](N)[C@H](O)[C@H](C)O1: rule not met
- CC(C)(O)c1cc2nc(-c3cnc(N)nc3)nc(N3CCOCC3)c2s1: rule met
- CC(C)(O)CNc1ncc(-c2ccnc(Nc3ccncc3)n2)c(CC2CC2)n1: rule not met
- COCCNCc1ccc(-c2cc3nccc(Oc4ccc(NC(=O)C5(C(=O)Nc6ccc(F)cc6)CC5)cc4F)c3s2)nc1: rule not met
- O=C(O)c1nn(Cc2ccc(Cl)cc2Cl)c2ccccc12: rule met
- CC(=O)NCCCS(=O)(=O)[O-] [ACAMPROSATE CALCIUM]: rule met
- CC(C)C(N)C(=O)OCC(CO)OC[N]1C=NC2=C1N\C(=N/C2=O)N (stereo not given): rule met
- C=CCc1cccc(/C=N/NC(=O)CN2CCN(Cc3ccccc3)CC2)c1O: rule not met
- CCOc1ccc(Nc2nc(-c3c(C)nc4ccccn34)cs2)cc1: rule met
- ONC(=O)C1=CC=C(C=C1)C/2=N/C3=CC=CC=C3OC4=C2C=CC=C4: rule not met
- NC(=O)c1ncn([C@@H]2O[C@H](CO)[C@@H](O)[C@H]2O)n1: rule met
- S=C1N\C=N/C2=C1[NH]C=N2: rule not met
- NC(=O)[C@@H](CCC(F)(F)F)N(Cc1ccc(-c2ncon2)cc1F)[S+](=O)([O-])c1ccc(Cl)cc1: rule not met
- COc1ccc(-c2nc(N3CCOCC3)c3sc(CN(C)c4ncc(C(=O)NO)cn4)cc3n2)cn1: rule not met
- N#Cc1ccc(N(Cc2ccc(Br)cc2)n2cnnc2)cc1: rule met
- NC(=O)c1ncn([C@@H]2O[C@H](CO)[C@@H](O)[C@H]2O)c1N: rule met
- CCNC(=O)Nc1ncc(-c2cc(-c3c(C)cc(OC)cc3C)nc(-c3cnccn3)n2)s1: rule met
- Cc1coc2c1C(=O)C(=O)c1c-2ccc2c1CCCC2(C)C: rule met
- COC1=CC=C2Nc3cc(Cl)ccc3C(N=C3C=C(CN4CCCC4)C(=O)C(CN4CCCC4)=C3)=C2N1 [PYRONARIDINE TETRAPHOSPHATE]: rule not met
- OC(=O)/C1=C/CCN(CCOC(C2=CC=C(C=C2)C(F)(F)F)C3=CC=C(C=C3)C(F)(F)F)C1: rule met
- [2H]C([2H])([2H])C(O)([C@@H](C)/C=C/[C@@H](C)[C@H]1CC[C@H]2/C(=C/C=C3C[C@@H](O)C[C@H](O)C3)CCC[C@]12C)C([2H])([2H])[2H]: rule met
- COc1cc2c(cc1OC(C)C)[C@H](c1ccc(Cl)cc1)N(c1ccc(N(C)C[C@H]3CC[C@H](N4CCN(C)C(=O)C4)CC3)cc1)C(=O)C2: rule not met
- CN[S+](=O)([O-])c1ccc2c(c1)/C(=C/c1[nH]c3c(c1CCCN1CCN(C)CC1)CCCC3)C(=O)N2: rule not met
- CC1=NN=C(C[C@@H]2\C=C(C3=CC=C(Cl)C=C3)/C4=CC=CC=C4[N]5C(=NN=C25)C)O1: rule not met
